B1: library; a variant is named by its letters at N, in order (parent)
chain: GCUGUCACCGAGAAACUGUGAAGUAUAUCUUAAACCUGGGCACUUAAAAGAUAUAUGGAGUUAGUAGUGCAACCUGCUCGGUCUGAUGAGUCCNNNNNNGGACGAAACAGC

variants of: B1; assay: FACS-Seq fitted mean relative fluorescence mCherry/BFP without ligand (log10 relative fluorescence); HEK293T; ligand: cyclic di-GMP (c-di-GMP-II aptamer); higher = higher reporter protein expression; details: ligand present: no
FACS-Seq fitted mean (log10) listing for selected variants.
Could you respond with only the numeric value?

{"mutant": "ACAACU", "measured.result": -0.512}
{"mutant": "AGUGAA", "measured.result": -0.389}

Consider the additional variant presented here.
input: Which measured FACS-Seq fitted mean (log10) value corresponds to "AAGUUA" ?
output: -0.499
